- assay-info: Canine pharmacokinetics of enteric coated formulations at 0.15 mg/kg (T1) and 0.75 mg/kg (T5)
- Format: in vivo
- measurement-parameters: dog, blood, po, 0.75 mg/kg, dogs, oral enteric coated formulation, T5 0.75 mg/kg, Arith. Mean
result-type: Tmax (h)
The figure you give is taken to be in h; do not add the unit.

Ask | Which Tmax value belongs to "CO[C@H]1C[C@@H]2CC[C@@H](C)[C@@](O)(O2)C(=O)C(=O)N2CCCC[C@H]2C(=O)O[C@H]([C@H](C)C[C@@H]2CC[C@@H](O)[C@H](OC)C2)CC(=O)[C@H](C)/C=C(\C)[C@@H](O)[C@@H](OC)C(=O)[C@H](C)C[C@H](C)/C=C/C=C/C=C/1C" ?
Reply | 2.17

====

- assay-info: Feline repeat dose toxicokinetic study of oral enteric-coated formulations
- Format: in vivo
- measurement-parameters: whole blood, 0.45 mg/kg, cats, oral enteric-coated formulation, 0.45 mg/kg, Day 0, whole blood, Mean, read-out: AUC0-72
result-type: AUC(0-t) (ng·h/mL)
The figure you give is taken to be in ng·h/mL; do not add the unit.

Ask | Which AUC(0-t) value belongs to "CO[C@H]1C[C@@H]2CC[C@@H](C)[C@@](O)(O2)C(=O)C(=O)N2CCCC[C@H]2C(=O)O[C@H]([C@H](C)C[C@@H]2CC[C@@H](O)[C@H](OC)C2)CC(=O)[C@H](C)/C=C(\C)[C@@H](O)[C@@H](OC)C(=O)[C@H](C)C[C@H](C)/C=C/C=C/C=C/1C" ?
Reply | 99.5

====

- assay-info: Feline repeat dose toxicokinetic study of oral enteric-coated formulations
- Format: in vivo
- measurement-parameters: whole blood, 0.75 mg/kg, cats, oral enteric-coated formulation, 0.75 mg/kg, Day 0, whole blood, Mean
result-type: Tmax (h)
The figure you give is taken to be in h; do not add the unit.

Ask | Which Tmax value belongs to "CO[C@H]1C[C@@H]2CC[C@@H](C)[C@@](O)(O2)C(=O)C(=O)N2CCCC[C@H]2C(=O)O[C@H]([C@H](C)C[C@@H]2CC[C@@H](O)[C@H](OC)C2)CC(=O)[C@H](C)/C=C(\C)[C@@H](O)[C@@H](OC)C(=O)[C@H](C)C[C@H](C)/C=C/C=C/C=C/1C" ?
Reply | 2
